Source: patent US20260258115A1

What Neut IC50 subtype A was measured for each of the following?
- TARGET_OF_ASSAY: RSV F on RSV subtype A virus (mKate-RSV A2) (respiratory syncytial virus A2, UniProt P03420 26-574)
- ASSAY_EXPLANATION: cell-based or functional assay
Entry rule: numbers only, all in µg/mL.

Documented Neut IC50 subtype A of ADI-24850 (antibody, V domains shown, full-length IgG) VH: QVQLVQSGGGLVKPGGSLRLSCAASGFTFSSYSMNWVRQAPGKGLEWVSSISSSSSYIYYADSVKGRFTISRDNAKNSLYLQMNSLRAEDTAVYYCAREDYGDYYYYYMDVWGKGTTVTVSS VL: QPVLTQPPSVSGAPGQRVTISCTGSSSNIGAGYDVHWYQQLPGTAPKLLIYGNSNRPSGVPDRFSGSKSGTSASLAITGLQAEDEADYYCQSYDSSLSGYVFGTGTKVTVL : 0.94

Documented Neut IC50 subtype A of ADI-14342 (antibody, V domains shown, full-length IgG; also called Ab 10) VH: QVTLKESGPVLVKPTETLTLTCTVSGFSLSNAKMGVSWIRQPPGKALEWLAYISSNDEKSYSTSLKSRLTISKDTSKSQVVLTMTNMDPVDTATYYCARILLYDSSGYYLWYFDLWGRGTLVTVSS VL: DIQVTQSPSSLSASVGDRVTITCRASQRITSYLNWYQHKPGKAPKLLIFAASSLHSGVPSTFSGSGSGTDFTLTISSLQPEDFATYYCQQSYSTPWTFGQGTKVEIK : 1.75

Documented Neut IC50 subtype A of ADI-19509 (antibody, V domains shown, full-length IgG) VH: EVQLVESGGGLVKPGGSLRLSCAASGFTFSSYSMNWVRQAPGKGLEWVSSISSSSSYIYYADSVKGRFTISRDNAKNSLYLQMNSLRAEDTAVYYCASSRRSLTGDRGGWFDPWGQGTLVTVSS VL: QSVLTQPPSVSGAPGQRVTISCTGSSSNIGAGYDVHWYQQLPGTAPKLLIYGNSNRPSGVPDRFSGSKSGTSASLAITGLQAEDEADYYCQSYDSSLSGWVFGGGTKLTVL : 3.42
